tested on: L929; experiment: Cytotoxicity against mouse L929 cells assessed as reduction in cell survival after 5 days by MTS assay; type: cell-based; settings: L929, 120 h
Consider the following compounds and their measured IC50 readings.
Metric: IC50

{"columns": ["Compound", "Metric", "Recorded Result"],
 "data": [
  ["O=c1cc(-c2ccccc2)oc2cc(OCCCc3cn(CCOCCOc4ccc5c(=O)cc(-c6ccccc6)oc5c4)nn3)ccc12", "IC50", "> 100 µM"],
  ["O=c1cc(-c2ccc(OCCCc3cn(CCOCCOCCOc4ccc(-c5cc(=O)c6cc(F)ccc6o5)cc4)nn3)cc2)oc2cc(F)ccc12", "IC50", "> 100 µM"],
  ["CN(C)C(=O)CCSC(SCCC(=O)O)c1cccc(/C=C/c2ccc3ccc(Cl)cc3n2)c1 (configuration not stated)", "IC50", "> 100 µM"],
  ["O=c1cc(-c2ccc(OCCOCCn3cc(CN(CCOc4ccc5c(=O)cc(-c6ccccc6)oc5c4)Cc4ccccc4)nn3)cc2)oc2ccccc12", "IC50", "> 100 µM"],
  ["Cc1ccc2oc(-c3ccc(OCCCCc4cn(CCOCCOc5ccc(-c6cc(=O)c7ccccc7o6)cc5)nn4)cc3)cc(=O)c2c1", "IC50", "> 57 µM"],
  ["O=c1cc(-c2ccc(OCCCc3cn(CCOCCOc4ccc(-c5cc(=O)c6ccccc6o5)cc4)nn3)cc2)oc2ccccc12", "IC50", "60 µM"],
  ["O=c1cc(-c2ccc(OCCOCCOCCn3cc(CN(CCOc4ccc5c(=O)cc(-c6ccccc6)oc5c4)Cc4ccccc4)nn3)cc2)oc2ccccc12", "IC50", "> 100 µM"]
]}

---

Entries and their viability at 120 h, 2 µM values follow.
experiment: Cytotoxicity against human 2008/MRP1 cells assessed as cell survival at 2 uM after 5 days by MTS assay relative to control; assay type: cell-based; conditions: read-out: Survival

{"columns": ["Smi", "viability at 120 h, 2 µM [%]"],
 "data": [
  ["O=C1c2ccccc2C(=O)N1CCc1cn(CCOCCOCCOc2ccc(-c3cc(=O)c4ccccc4o3)cc2)nn1", 4],
  ["O=c1cc(-c2ccc(OCCOCCn3cc(CN(CCOc4ccc5c(=O)cc(-c6ccccc6)oc5c4)Cc4ccccc4)nn3)cc2)oc2ccccc12", 97],
  ["O=c1cc(-c2ccc(OCCOCCn3cc(CN(Cc4ccccc4)Cc4cn(CCOCCOc5ccc(-c6cc(=O)c7ccccc7o6)cc5)nn4)nn3)cc2)oc2ccccc12", 92],
  ["O=C(/C=C/c1ccc(OCCCCc2cn(CCOCCOc3ccc(-c4cc(=O)c5ccccc5o4)cc3)nn2)cc1)c1ccc(F)cc1O", 90],
  ["O=c1cc(-c2ccc(OCCCc3cn(CCOCCOc4cccc(-c5oc6ccccc6c(=O)c5OCc5ccccc5)c4)nn3)cc2)oc2cc(F)ccc12", 99],
  ["COc1cccc(COc2c(-c3ccc(OCCCCc4cn(CCOCCOCCOc5ccc(-c6oc7ccccc7c(=O)c6OCc6ccccc6)cc5)nn4)cc3)oc3ccccc3c2=O)c1", 53],
  ["O=C(/C=C/c1ccc(OCCCCc2cn(CCOCCOc3ccc(-c4cc(=O)c5ccccc5o4)cc3)nn2)cc1)c1ccccc1O", 83],
  ["O=c1cc(-c2ccccc2)oc2cc(OCCCc3cn(CCOCCOCCOc4ccc(-c5cc(=O)c6cc(F)ccc6o5)cc4)nn3)ccc12", 88],
  ["O=c1cc(-c2ccc(OCCCc3cn(CCOCCOCCOc4ccc(-c5oc6ccccc6c(=O)c5OCc5ccccc5)cc4)nn3)cc2)oc2cc(F)ccc12", 97],
  ["O=c1[nH]c(-c2ccc(OCCCc3cn(CCOCCOc4ccc5c(=O)cc(-c6ccccc6)oc5c4)nn3)cc2)nc2ccccc12", 65],
  ["Cc1ccc2oc(-c3ccc(OCCCCc4cn(CCOCCOc5ccc(-c6cc(=O)c7ccccc7o6)cc5)nn4)cc3)cc(=O)c2c1", 85],
  ["CCc1ccc(O)c(C(=O)/C=C/c2ccc(OCCCCc3cn(CCOCCOc4ccc(-c5cc(=O)c6ccccc6o5)cc4)nn3)cc2)c1", 95],
  ["O=c1cc(-c2ccccc2)oc2cc(OCCOCCOCCn3cc(CCCOc4ccc(-c5cc(=O)c6cc(F)ccc6o5)cc4)nn3)ccc12", 105],
  ["O=C1c2ccccc2C(=O)N1CCc1cn(CCOCCOc2ccc(-c3cc(=O)c4ccccc4o3)cc2)nn1", 18]
]}

---

biological target: Multidrug resistance-associated protein 1 (Homo sapiens, UniProt P33527); assay: Inhibition of MRP1 in human 2008/MRP1 cells assessed as potentiation of doxorubicin-induced cytotoxicity by measuring cell survival at 2 uM after 5 days by MTS assay relative to control; type: cell-based; details: 120 h
Sequence (P33527 whole entry): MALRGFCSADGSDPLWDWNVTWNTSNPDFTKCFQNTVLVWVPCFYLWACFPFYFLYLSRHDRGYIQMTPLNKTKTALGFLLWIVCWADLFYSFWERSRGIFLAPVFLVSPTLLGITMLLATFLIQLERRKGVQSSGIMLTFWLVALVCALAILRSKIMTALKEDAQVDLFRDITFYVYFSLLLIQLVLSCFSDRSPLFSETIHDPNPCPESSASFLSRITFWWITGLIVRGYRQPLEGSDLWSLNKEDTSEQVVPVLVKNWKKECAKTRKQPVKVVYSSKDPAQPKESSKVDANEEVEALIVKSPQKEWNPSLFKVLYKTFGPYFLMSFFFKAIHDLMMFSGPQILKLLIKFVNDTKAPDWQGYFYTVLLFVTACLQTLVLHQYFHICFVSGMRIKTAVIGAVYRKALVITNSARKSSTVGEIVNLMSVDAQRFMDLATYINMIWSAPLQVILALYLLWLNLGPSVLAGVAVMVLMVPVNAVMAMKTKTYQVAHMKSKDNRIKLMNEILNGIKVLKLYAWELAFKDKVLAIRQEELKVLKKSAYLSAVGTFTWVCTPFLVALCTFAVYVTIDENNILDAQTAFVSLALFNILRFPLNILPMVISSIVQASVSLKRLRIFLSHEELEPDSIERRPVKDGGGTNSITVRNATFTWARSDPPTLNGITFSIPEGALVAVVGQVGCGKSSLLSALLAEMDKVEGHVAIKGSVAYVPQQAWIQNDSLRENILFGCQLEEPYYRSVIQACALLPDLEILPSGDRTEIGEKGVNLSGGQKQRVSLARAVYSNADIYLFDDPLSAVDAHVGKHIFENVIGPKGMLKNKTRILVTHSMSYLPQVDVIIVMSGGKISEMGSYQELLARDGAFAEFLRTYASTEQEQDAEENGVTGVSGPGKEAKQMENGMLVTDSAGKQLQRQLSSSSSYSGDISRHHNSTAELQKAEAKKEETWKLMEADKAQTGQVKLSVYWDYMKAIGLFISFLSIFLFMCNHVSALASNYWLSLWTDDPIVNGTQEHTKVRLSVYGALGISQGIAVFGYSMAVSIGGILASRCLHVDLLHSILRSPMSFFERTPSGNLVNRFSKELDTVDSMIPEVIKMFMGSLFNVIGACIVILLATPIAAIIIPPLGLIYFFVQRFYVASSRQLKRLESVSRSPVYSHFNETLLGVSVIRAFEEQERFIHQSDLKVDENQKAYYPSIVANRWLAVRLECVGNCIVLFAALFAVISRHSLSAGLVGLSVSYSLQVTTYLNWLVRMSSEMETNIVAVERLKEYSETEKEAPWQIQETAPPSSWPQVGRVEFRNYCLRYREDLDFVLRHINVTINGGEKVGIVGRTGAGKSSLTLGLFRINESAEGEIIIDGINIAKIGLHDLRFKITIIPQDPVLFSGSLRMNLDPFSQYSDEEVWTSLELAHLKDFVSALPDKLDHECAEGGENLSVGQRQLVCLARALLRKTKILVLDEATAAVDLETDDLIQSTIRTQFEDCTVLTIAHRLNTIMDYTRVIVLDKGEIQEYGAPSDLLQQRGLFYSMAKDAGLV
Rule: Survival of 80% or more gives Met; anything lower gives Not met.

{"columns": ["Smi", "Assigned Class"],
 "data": [
  ["[N-]=[N+]=NCCOCCOCCOc1ccc(-c2cc(=O)c3ccccc3o2)cc1", "Met"],
  ["Cc1ccc2oc(-c3ccc(OCCCCc4cn(CCOCCOCCOc5ccc6c(=O)cc(-c7ccccc7)oc6c5)nn4)cc3)cc(=O)c2c1", "Not met"],
  ["O=c1cc(-c2ccccc2)oc2cc(OCCOCc3cn(CCOCCOc4ccc(-c5cc(=O)c6cc(F)ccc6o5)cc4)nn3)ccc12", "Not met"],
  ["O=c1c(OCc2ccccc2)c(-c2ccc(OCCOCCOCCn3cc(CN4CCN(Cc5cn(CCOCCOCCOc6ccc(-c7oc8ccccc8c(=O)c7OCc7ccccc7)cc6)nn5)CC4)nn3)cc2)oc2ccccc12", "Met"],
  ["O=c1c(OCc2ccccc2)c(-c2ccc(OCCOCCn3cc(CN(Cc4cn(CCOCCOc5ccc(-c6oc7ccccc7c(=O)c6OCc6ccccc6)cc5)nn4)Cc4cn(CCOCCOc5ccc(-c6oc7ccccc7c(=O)c6OCc6ccccc6)cc5)nn4)nn3)cc2)oc2ccccc12", "Not met"]
]}

---

target: Multidrug resistance-associated protein 1 (Homo sapiens, UniProt P33527); test: Inhibition of MRP1 in human 2008/MRP1 cells assessed as potentiation of doxorubicin-induced cytotoxicity by measuring cell survival at 2 uM after 5 days by MTS assay relative to control; format: cell-based; details: 120 h
Note that class boundaries on Survival are L = under 70%, M = from 70% up to 80%, H = 80% and over

{"columns": ["Smi", "Assigned Class"],
 "data": [
  ["COCOc1cc(OCc2ccccc2)c2c(=O)cc(-c3ccc(OCCCc4cn(CCOCCOCCOc5ccc(-c6cc(=O)c7cc(C)ccc7o6)cc5)nn4)cc3)oc2c1", "L"],
  ["O=c1cc(-c2ccc(OCCOCCn3cc(CN(CCOc4ccc5c(=O)cc(-c6ccccc6)oc5c4)Cc4ccccc4)nn3)cc2)oc2ccccc12", "L"],
  ["O=c1cc(-c2ccc(OCCOCCOCCn3cc(-c4ccc(-c5cn(CCOCCOCCOc6ccc(-c7cc(=O)c8cc(F)ccc8o7)cc6)nn5)cc4)nn3)cc2)oc2ccc(F)cc12", "H"],
  ["COCOc1cc(OCc2ccccc2)c2c(=O)cc(-c3ccc(OCCCc4cn(CCOCCOCCOc5ccc6c(=O)cc(-c7ccccc7)oc6c5)nn4)cc3)oc2c1", "M"],
  ["O=c1cc(-c2ccc(OCCOCCOCCn3cc(CN4CCN(Cc5cn(CCOCCOCCOc6ccc(-c7cc(=O)c8cc(F)ccc8o7)cc6)nn5)CC4)nn3)cc2)oc2ccc(F)cc12", "H"],
  ["COc1cccc(COc2c(-c3ccc(OCCOCCn4cc(CCCCOc5ccc(C=O)cc5)nn4)cc3)oc3ccccc3c2=O)c1", "M"],
  ["C#CCCCCOc1ccc2c(=O)cc(-c3ccccc3)oc2c1", "H"],
  ["O=c1cc(-c2ccc(OCCOCCOCCn3cc(-c4ccc(-c5cn(CCOCCOCCOc6ccc(-c7cc(=O)c8ccccc8o7)cc6)nn5)cc4)nn3)cc2)oc2ccccc12", "H"],
  ["CN(CCN(C)Cc1cn(CCOCCOc2ccc(-c3cc(=O)c4cc(F)ccc4o3)cc2)nn1)Cc1cn(CCOCCOc2ccc(-c3cc(=O)c4cc(F)ccc4o3)cc2)nn1", "M"],
  ["O=c1cc(-c2ccc(OCCOCCOCCn3cc(-c4cccc(-c5cn(CCOCCOCCOc6ccc(-c7cc(=O)c8ccccc8o7)cc6)nn5)c4)nn3)cc2)oc2ccccc12", "H"],
  ["O=c1cc(-c2ccc(OCCOCCOCCn3cc(CCCOc4ccc5c(=O)cc(-c6ccccc6)oc5c4)nn3)cc2)oc2ccccc12", "L"],
  ["CCc1ccc(O)c(C(=O)/C=C/c2ccc(OCCCCc3cn(CCOCCOc4cccc(-c5oc6ccccc6c(=O)c5OCc5ccccc5)c4)nn3)cc2)c1", "H"],
  ["O=c1c(OCc2ccccc2)c(-c2cccc(OCCOCCn3cc(CN(Cc4ccccc4)Cc4cn(CCOCCOc5cccc(-c6oc7ccccc7c(=O)c6OCc6ccccc6)c5)nn4)nn3)c2)oc2ccccc12", "H"],
  ["O=c1cc(-c2ccc(OCCCc3cn(CCOCCOc4ccc5c(=O)cc(-c6ccccc6)oc5c4)nn3)cc2)oc2cc(F)ccc12", "L"],
  ["O=c1cc(-c2ccccc2)oc2cc(OCCCc3cn(CCOCCOc4ccc(-c5oc6ccccc6c(=O)c5OCc5ccccc5)cc4)nn3)ccc12", "L"],
  ["O=c1cc(-c2ccccc2)oc2cc(OCCOCCOCCn3cc(CN4CCN(Cc5cn(CCOCCOCCOc6ccc7c(=O)cc(-c8ccccc8)oc7c6)nn5)CC4)nn3)ccc12", "H"],
  ["O=c1cc(-c2ccc(OCCOCCn3cc(COCCOc4ccc5c(=O)cc(-c6ccccc6)oc5c4)nn3)cc2)oc2ccccc12", "L"]
]}
